The reported numbers originate from PubChem BioAssay (EPA / NIEHS).

targetEntity: Transcriptional activator Myb (Homo sapiens) (UniProt P10242)
Sequence (P10242 whole entry, looked up): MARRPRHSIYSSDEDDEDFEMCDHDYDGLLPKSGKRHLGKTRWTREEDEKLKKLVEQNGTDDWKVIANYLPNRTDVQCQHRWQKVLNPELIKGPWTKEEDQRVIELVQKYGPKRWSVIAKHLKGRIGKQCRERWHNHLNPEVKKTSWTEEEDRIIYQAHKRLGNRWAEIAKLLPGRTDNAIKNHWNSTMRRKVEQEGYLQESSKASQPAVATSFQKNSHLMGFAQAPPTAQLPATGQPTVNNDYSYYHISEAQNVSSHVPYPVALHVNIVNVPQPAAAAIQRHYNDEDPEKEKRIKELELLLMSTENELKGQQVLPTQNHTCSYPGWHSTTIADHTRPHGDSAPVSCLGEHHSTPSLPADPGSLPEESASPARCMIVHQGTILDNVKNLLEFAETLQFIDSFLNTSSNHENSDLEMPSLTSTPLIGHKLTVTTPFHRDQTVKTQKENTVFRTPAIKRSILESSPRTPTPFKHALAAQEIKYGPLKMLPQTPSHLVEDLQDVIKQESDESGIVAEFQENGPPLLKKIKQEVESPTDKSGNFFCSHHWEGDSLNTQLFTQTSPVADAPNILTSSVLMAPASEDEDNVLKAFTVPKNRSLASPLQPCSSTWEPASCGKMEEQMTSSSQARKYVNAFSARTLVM
experimentalProtocol: ATG_Myb_CIS: Attagene CIS-FACTORIAL HepG2 Assay for human Myeloblastosis (Myb) Proto-Oncogene Transcription Factor (AID 2282986)
assayContext: HepG2 Attagene CIS-FACTORIAL Myb reporter transcription; actives raise or lower the signal
Calls of active or inactive are those of the source. The calls were made as follows: active = hit-call score of the fitted dose curve at least 0.9, where 1 is the maximum; inactive = score below 0.9.
A correct response names exactly one class from T for active, F for inactive

Problem: Check the results log: what was the call for "c1ccc2sc(SN(C3CCCCC3)C3CCCCC3)nc2c1" ?
Result: F

Problem: Check the results log: what was the call for "COc1cc2ncnc(Nc3cccc(Cl)c3)c2cc1OC" ?
Result: F

Problem: Check the results log: what was the call for "O=C(Cl)c1cccc(C(=O)Cl)c1" ?
Result: F

Problem: Check the results log: what was the call for CC1=CCC(O)(C(C)C)CC1 (stereo not given) ?
Result: F

Problem: Check the results log: what was the call for "O=C1CCc2ccccc2O1" ?
Result: F

Problem: Check the results log: what was the call for "C=CC(C)(C)O" ?
Result: F

Problem: Check the results log: what was the call for OC1C(O)C(O)C(O)C(O)C1O (stereo not given) ?
Result: F

Problem: Check the results log: what was the call for "Cc1cc(C2(c3cc(C)c(O)cc3C)OS(=O)(=O)c3ccccc32)c(C)cc1O" ?
Result: F

Problem: Check the results log: what was the call for CC1CCC(C(C)CS)CC1S (stereo not given) ?
Result: T

Problem: Check the results log: what was the call for "O=C1CCCCCCCCCCCCCCO1" ?
Result: F

Problem: Check the results log: what was the call for C=CC(C)(CCC=C(C)C)OC=O (stereo not given) ?
Result: F

Problem: Check the results log: what was the call for CC1CCC2CC1C2(C)C (stereo not given) ?
Result: F

Problem: Check the results log: what was the call for "CC1=CC(=O)NS(=O)(=O)O1" ?
Result: F

Problem: Check the results log: what was the call for "COC(=O)Cc1cccc2ccccc12" ?
Result: F

Problem: Check the results log: what was the call for "C=CC(=O)OCCOCCOCC" ?
Result: F

* * *

targetEntity: Nuclear respiratory factor 1 (Homo sapiens) (UniProt Q16656)
Sequence (Q16656 whole entry, looked up): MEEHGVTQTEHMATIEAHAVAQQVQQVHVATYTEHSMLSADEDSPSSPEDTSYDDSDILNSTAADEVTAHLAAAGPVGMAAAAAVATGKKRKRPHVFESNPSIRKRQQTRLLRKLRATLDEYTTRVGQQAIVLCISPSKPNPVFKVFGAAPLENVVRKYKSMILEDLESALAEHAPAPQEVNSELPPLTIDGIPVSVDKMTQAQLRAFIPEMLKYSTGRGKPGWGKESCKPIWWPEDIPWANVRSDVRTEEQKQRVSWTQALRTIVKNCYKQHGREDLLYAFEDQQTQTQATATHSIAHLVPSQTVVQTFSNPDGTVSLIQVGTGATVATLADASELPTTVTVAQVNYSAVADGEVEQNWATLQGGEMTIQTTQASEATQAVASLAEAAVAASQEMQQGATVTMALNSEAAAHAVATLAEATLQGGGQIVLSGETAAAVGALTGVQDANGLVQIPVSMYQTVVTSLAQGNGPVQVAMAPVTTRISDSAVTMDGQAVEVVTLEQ
experimentalProtocol: ATG_NRF1_CIS: Attagene CIS-FACTORIAL HepG2 Assay for human Nuclear Respiratory Factor 1 (NRF1) Orphan Gene (AID 2282987)
assayContext: HepG2 NRF1 cis-element reporter, Attagene multiplex; actives raise or lower the signal
Calls of active or inactive are those of the source. The calls were made as follows: active = hit-call score of the fitted dose curve at least 0.9, where 1 is the maximum; inactive = score below 0.9.
A correct response names exactly one class from t for active, f for inactive

Problem: Check the results log: what was the call for "CC1(C)OC[C@@H]2O[C@@]3(C(=O)O)OC(C)(C)O[C@H]3[C@@H]2O1" ?
Result: f

Problem: Check the results log: what was the call for BrC1CCC(Br)C(Br)CCC(Br)C(Br)CCC1Br (stereo unspecified) ?
Result: t

Problem: Check the results log: what was the call for "CC(C)C(C)(C)C(C)(C)C(C)(C)S" ?
Result: f

Problem: Check the results log: what was the call for "N#Cc1nc(Cl)c(Cl)c(Cl)c1Cl" ?
Result: t

Problem: Check the results log: what was the call for "C#C[C@]1(O)CC[C@H]2[C@@H]3CCC4=Cc5oncc5C[C@]4(C)[C@H]3CC[C@@]21C" ?
Result: f

Problem: Check the results log: what was the call for CCC(O)CO (stereo unspecified) ?
Result: f

* * *

Tested on: DIO3 (gene 1735)
experimentalProtocol: CCTE_GLTED_hDIO3: CCTE's human Deiodinase 3 (DIO3) Inhibition Assay, Great Lakes Toxicology and Ecology Division (GLTED) Lab (AID 2284055);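 also: potency is for inhibition seen as loss of released iodide signal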
Calls of active or inactive are those of the source. The calls were made as follows: active = hit-call score of the fitted dose curve at least 0.9, where 1 is the maximum; inconclusive = response in the unintended direction; inactive = score below 0.9.
assayMetric: AC50

Field AC50 (entry "O=Nc1ccc(Nc2ccccc2)cc1" ) reads 55.1 µM (active)

Field AC50 (entry "CCCCCCCCCCCCCC(=O)O" ) reads 156 µM (active)

Field AC50 (entry "O=C(Oc1ccccc1)c1ccc(O)cc1" ) reads 52.9 µM (active)

Field AC50 (entry "CC(C)=CCCC(C)=CCCC(C)=CCO" ) reads 17.9 µM (active)

Field AC50 (entry CCC(=O)/C=C/C1C(C)=CCCC1(C)C (stereo unspecified) ) reads 56.6 µM (active)

Field AC50 (entry "CCCCCCCCCCCCCCCC(=O)OC[C@H](O)[C@H]1OC(=O)C(O)=C1O" ) reads 4.09 µM (active)

* * *

experimentalProtocol: ATG_PBREM_CIS: Attagene CIS-FACTORIAL HepG2 Assay for human Phenobarbital-responsive Enhancer Module (PBREM) (AID 2282955)
assayContext: HepG2 PBREM cis-reporter, Attagene multiplexed transcription; actives raise or lower the signal
Calls of active or inactive are those of the source. The calls were made as follows: active = hit-call score of the fitted dose curve at least 0.9, where 1 is the maximum; inactive = score below 0.9.
A correct response names exactly one class from yes (active), no (inactive)

Problem: Check the results log: what was the call for "Nc1cc([N+](=O)[O-])ccc1Cl" ?
Result: no

Problem: Check the results log: what was the call for "Fc1c(F)c(F)c(Br)c(F)c1F" ?
Result: no

Problem: Check the results log: what was the call for "C=CC(=O)OCCn1c(=O)n(CCOC(=O)C=C)c(=O)n(CCOC(=O)C=C)c1=O" ?
Result: no

Problem: Check the results log: what was the call for "CC(=O)C(=O)O" ?
Result: no

Problem: Check the results log: what was the call for "C=COCCOCCOCCOC=C" ?
Result: no

Problem: Check the results log: what was the call for "Cc1ccccc1C=O" ?
Result: no

Problem: Check the results log: what was the call for "c1ccc2sc(SN(C3CCCCC3)C3CCCCC3)nc2c1" ?
Result: no

Problem: Check the results log: what was the call for "COc1cc(C)cc(O)c1" ?
Result: no

Problem: Check the results log: what was the call for CCC(=O)OCCC(C)CCC=C(C)C (stereo unspecified) ?
Result: no

Problem: Check the results log: what was the call for "CC(=O)C(C)=O" ?
Result: no

Problem: Check the results log: what was the call for CC1=CCC(O)(C(C)C)CC1 (stereo unspecified) ?
Result: no

Problem: Check the results log: what was the call for "CC[Si](OC(C)=O)(OC(C)=O)OC(C)=O" ?
Result: yes

Problem: Check the results log: what was the call for "O=C(OCc1ccccc1)C(=O)OCc1ccccc1" ?
Result: no

Problem: Check the results log: what was the call for OC1OC[C@@H](O)[C@H](O)[C@H]1O (stereo partly specified) ?
Result: no

Problem: Check the results log: what was the call for O=C(O)COCCN1CCN(C(c2ccccc2)c2ccc(Cl)cc2)CC1 (stereo unspecified) ?
Result: no

Problem: Check the results log: what was the call for CN(CCOc1ccc(CC2SC(=O)NC2=O)cc1)c1ccccn1 (stereo unspecified) ?
Result: yes

Problem: Check the results log: what was the call for CC1(CO)CN(c2ccccc2)NC1=O (stereo unspecified) ?
Result: no

Problem: Check the results log: what was the call for "CC(C)=CCCC(C)=CCCC(C)=CCO" ?
Result: no

Problem: Check the results log: what was the call for "CC(C)=CCC/C(C)=C/COC=O" ?
Result: no

Problem: Check the results log: what was the call for "CNC[C@H](O)c1cccc(O)c1" ?
Result: no

Problem: Check the results log: what was the call for "CCCC(=O)c1cc(O)c(O)cc1O" ?
Result: no

Problem: Check the results log: what was the call for "CC(=O)Nc1ccc(C)cc1C" ?
Result: no

Problem: Check the results log: what was the call for "CC(C)(C)C(=O)c1ccccc1" ?
Result: no

Problem: Check the results log: what was the call for "CC(=O)OCc1ccc2c(c1)OCO2" ?
Result: no

Problem: Check the results log: what was the call for "Nc1cc([N+](=O)[O-])ccc1O" ?
Result: no

Problem: Check the results log: what was the call for "c1ccc2c(c1)c1cccc3ccc4cccc2c4c31" ?
Result: no

Problem: Check the results log: what was the call for "C=CC(C)(C)O" ?
Result: no

Problem: Check the results log: what was the call for "O=Nc1ccc(Nc2ccccc2)cc1" ?
Result: yes

Problem: Check the results log: what was the call for "O=c1oc(=O)c2cc3c(=O)oc(=O)c3cc12" ?
Result: no

Problem: Check the results log: what was the call for "CCCCCCCCCCCCSC" ?
Result: no

Problem: Check the results log: what was the call for CC(=O)OCCC(C)CC(C)(C)C (stereo unspecified) ?
Result: no

* * *

experimentalProtocol: BSK_CASM3C_SRB: Viability Assessment in the BioMAP Diversity Plus: CASM3C Assay (AID 2283050);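 also: total protein by SRB staining as cytotoxicity measure in parallel cultures; cells exposed to compound for 24 h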
assayContext: primary human coronary artery smooth muscle cells
Calls of active or inactive are those of the source. Rule for the calls: active = hit-call score of the fitted dose curve at least 0.9, where 1 is the maximum; inactive = score below 0.9.
assayMetric: AC50

Worked examples, 10 compounds total:
compound: CCCCC/C=C/C=C/C=O
assayMetric: AC50
endpointResult: 32.3 µM (active)
//
compound: C=C(C)C(=O)O[C@H]1C[C@@H]2CC[C@@]1(C)C2(C)C
assayMetric: AC50
endpointResult: 13.2 µM (active)
//
compound: CC(C)Oc1ccccc1O
assayMetric: AC50
endpointResult: inactive
//
compound: CC(=O)Nc1ccccc1O
assayMetric: AC50
endpointResult: inactive
//
compound: COC(=O)c1ccc(C)cc1
assayMetric: AC50
endpointResult: inactive
//
compound: CC[Si](OC(C)=O)(OC(C)=O)OC(C)=O
assayMetric: AC50
endpointResult: inactive
//
compound: Cc1cc(C2(c3cc(C)c(O)cc3C)OS(=O)(=O)c3ccccc32)c(C)cc1O
assayMetric: AC50
endpointResult: inactive
//
compound: O=P(c1ccccc1)(c1ccccc1)c1ccccc1
assayMetric: AC50
endpointResult: inactive
//
compound: CC(C)(COC(=O)c1ccccc1)COC(=O)c1ccccc1
assayMetric: AC50
endpointResult: inactive
//
compound: OC[C@H]1O[C@H](O[C@]2(CCl)O[C@H](CCl)[C@@H](O)[C@@H]2O)[C@H](O)[C@@H](O)[C@H]1Cl
assayMetric: AC50
endpointResult: inactive

Field AC50 (entry CN(CCOc1ccc(CC2SC(=O)NC2=O)cc1)c1ccccn1 (stereo unspecified) ) reads inactive

Field AC50 (entry "CCc1c(C)cc(N)c(CC)c1N" ) reads inactive

Field AC50 (entry CCCCC(CC)COC(=O)/C=C\C(=O)OCC(CC)CCCC (stereo unspecified) ) reads inactive
